Conditions: human gut metagenome, 24 h, 2 µM; note: call rule not given here

>  <Compound>
COc1ccc2c(c1)c(CC(=O)O)c(C)n2C(=O)c1ccc(Cl)cc1 [INDOMETHACIN]

>  <Bacterial Biotransformation>
Compound NOT metabolized

$$$$
>  <Compound>
CC(=O)CCCCn1c(=O)c2c(ncn2C)n(C)c1=O [PENTOXIFYLLINE]

>  <Bacterial Biotransformation>
Compound NOT metabolized

$$$$
>  <Compound>
COc1ccccc1OCCNCC(O)COc1cccc2[nH]c3ccccc3c12 (stereo unspecified) [CARVEDILOL]

>  <Bacterial Biotransformation>
Compound metabolized

$$$$
>  <Compound>
CN1CCC(OC(c2ccccc2)c2ccccc2)CC1

>  <Bacterial Biotransformation>
Compound NOT metabolized

$$$$
>  <Compound>
CC(C)(C)NC(=O)[C@H]1CC[C@H]2[C@@H]3CC[C@H]4NC(=O)C=C[C@]4(C)[C@H]3CC[C@]12C [FINASTERIDE]

>  <Bacterial Biotransformation>
Compound metabolized

$$$$
>  <Compound>
CC(=O)Oc1ccc(C(c2ccc(OC(C)=O)cc2)c2ccccn2)cc1 [BISACODYL]

>  <Bacterial Biotransformation>
Compound metabolized

$$$$
>  <Compound>
C[N+]12CCC(CC1)C(OC(=O)C(O)(c1ccccc1)c1ccccc1)C2.[Br-] (stereo unspecified) [CLIDINIUM BROMIDE]

>  <Bacterial Biotransformation>
Compound NOT metabolized

$$$$
>  <Compound>
CN(C)CCC=C1c2ccccc2COc2ccccc21 [DOXEPIN]

>  <Bacterial Biotransformation>
Compound NOT metabolized

$$$$
>  <Compound>
CCCCCNC(=N)N/N=C/c1c[nH]c2ccc(OC)cc12.O=C(O)/C=C\C(=O)O [TEGASEROD MALEATE]

>  <Bacterial Biotransformation>
Compound NOT metabolized

$$$$
>  <Compound>
O=P1(N(CCCl)CCCl)NCCCO1 (stereo unspecified) [CYCLOPHOSPHAMIDE ANHYDROUS]

>  <Bacterial Biotransformation>
Compound metabolized

$$$$
>  <Compound>
CCOc1cc(CC(=O)N[C@@H](CC(C)C)c2ccccc2N2CCCCC2)ccc1C(=O)O [REPAGLINIDE]

>  <Bacterial Biotransformation>
Compound metabolized

$$$$
>  <Compound>
COc1cc(C(=O)NCc2ccc(OCCN(C)C)cc2)cc(OC)c1OC [TRIMETHOBENZAMIDE]

>  <Bacterial Biotransformation>
Compound NOT metabolized

$$$$
>  <Compound>
CCCN1C[C@H](CSC)C[C@@H]2c3cccc4[nH]cc(c34)C[C@H]21.CS(=O)(=O)O [PERGOLIDE MESYLATE]

>  <Bacterial Biotransformation>
Compound NOT metabolized

$$$$
>  <Compound>
COc1cc2nc(N3CCN(C(=O)C4COc5ccccc5O4)CC3)nc(N)c2cc1OC.CS(=O)(=O)O (stereo unspecified) [DOXAZOSIN MESYLATE]

>  <Bacterial Biotransformation>
Compound metabolized

$$$$
>  <Compound>
CC#CCn1c(N2CCC[C@@H](N)C2)nc2c1c(=O)n(Cc1nc(C)c3ccccc3n1)c(=O)n2C [LINAGLIPTIN]

>  <Bacterial Biotransformation>
Compound NOT metabolized

$$$$
>  <Compound>
O=C(CCCN1CCC2(CC1)C(=O)NCN2c1ccccc1)c1ccc(F)cc1 [SPIPERONE]

>  <Bacterial Biotransformation>
Compound NOT metabolized

$$$$
>  <Compound>
COc1cc2nc(N3CCN(C(=O)C4CCCO4)CC3)nc(N)c2cc1OC (stereo unspecified) [TERAZOSIN]

>  <Bacterial Biotransformation>
Compound NOT metabolized

$$$$
>  <Compound>
Br.COc1ccc2c(c1)[C@]13CCCC[C@@H]1[C@H](C2)N(C)CC3.O [DEXTROMETHORPHAN HYDROBROMIDE]

>  <Bacterial Biotransformation>
Compound metabolized

$$$$
>  <Compound>
CC(C)[C@H]1CC[C@H](C(=O)N[C@H](Cc2ccccc2)C(=O)O)CC1 [NATEGLINIDE]

>  <Bacterial Biotransformation>
Compound metabolized

$$$$
>  <Compound>
CC(NC(C)(C)C)C(=O)c1cccc(Cl)c1 (stereo unspecified) [BUPROPION]

>  <Bacterial Biotransformation>
Compound metabolized

$$$$
>  <Compound>
CCOc1ccc2nc(S(N)(=O)=O)sc2c1 [ETHOXZOLAMIDE]

>  <Bacterial Biotransformation>
Compound NOT metabolized

$$$$
>  <Compound>
COc1ccc(C(CN(C)C)C2(O)CCCCC2)cc1 (stereo unspecified) [VENLAFAXINE]

>  <Bacterial Biotransformation>
Compound NOT metabolized

$$$$
>  <Compound>
OCCN(CCO)c1nc(N2CCCCC2)c2nc(N(CCO)CCO)nc(N3CCCCC3)c2n1 [DIPYRIDAMOLE]

>  <Bacterial Biotransformation>
Compound NOT metabolized

$$$$
>  <Compound>
C#C[C@]1(OC(C)=O)CC[C@H]2[C@@H]3CCC4=C[C@@H](OC(C)=O)CC[C@@H]4[C@H]3CC[C@@]21C [ETHYNODIOL DIACETATE]

>  <Bacterial Biotransformation>
Compound metabolized

$$$$
>  <Compound>
c1ccc2[nH]c(-c3cscn3)nc2c1 [THIABENDAZOLE]

>  <Bacterial Biotransformation>
Compound NOT metabolized

$$$$
>  <Compound>
CC(C)c1nc(N(C)S(C)(=O)=O)nc(-c2ccc(F)cc2)c1/C=C/[C@@H](O)C[C@@H](O)CC(=O)[O-].CC(C)c1nc(N(C)S(C)(=O)=O)nc(-c2ccc(F)cc2)c1/C=C/[C@@H](O)C[C@@H](O)CC(=O)[O-].[Ca+2] [ROSUVASTATIN CALCIUM]

>  <Bacterial Biotransformation>
Compound metabolized

$$$$
>  <Compound>
O=C(O)CCC(=O)O.O=C(O[C@H]1CN2CCC1CC2)N1CCc2ccccc2[C@@H]1c1ccccc1 [SOLIFENACIN SUCCINATE]

>  <Bacterial Biotransformation>
Compound metabolized

$$$$
>  <Compound>
C=CC[C@@H]1/C=C(\C)C[C@H](C)C[C@H](OC)[C@H]2O[C@@](O)(C(=O)C(=O)N3CCCC[C@H]3C(=O)O[C@H](/C(C)=C/[C@@H]3CC[C@@H](O)[C@H](OC)C3)[C@H](C)[C@@H](O)CC1=O)[C@H](C)C[C@@H]2OC.O [TACROLIMUS]

>  <Bacterial Biotransformation>
Compound metabolized

$$$$
>  <Compound>
O=C(NC(Cc1cc(=O)[nH]c2ccccc12)C(=O)O)c1ccc(Cl)cc1 (stereo unspecified) [REBAMIPIDE]

>  <Bacterial Biotransformation>
Compound metabolized

$$$$
>  <Compound>
O=C([O-])C[C@H](O)C[C@H](O)/C=C/c1c(C2CC2)nc2ccccc2c1-c1ccc(F)cc1.O=C([O-])C[C@H](O)C[C@H](O)/C=C/c1c(C2CC2)nc2ccccc2c1-c1ccc(F)cc1.[Ca+2] [PITAVASTATIN CALCIUM]

>  <Bacterial Biotransformation>
Compound metabolized

$$$$
>  <Compound>
Cc1cc(C)cc(OCC2CNC(=O)O2)c1 (stereo unspecified) [METAXALONE]

>  <Bacterial Biotransformation>
Compound metabolized

$$$$

----------
Test: The drug is tested on Z-022 corresponding to mouse gut metagenome with ENA study accession number: PRJEB37062 and ENA sample accession number: ERS12561821 for biotransformation under anaerobic condition. The drug concentrations were measured over 9 timepoints collected between 0 and 24 hours of incubation by liquid-chromatography-coupled mass spectrometry (LC–MS)
Conditions: 2 µM

>  <Compound>
CC1=C(CC(=O)O)c2cc(F)ccc2/C1=C\c1ccc([S+](C)[O-])cc1 (centres undefined)

>  <Bacterial Biotransformation>
Compound NOT metabolized

$$$$
>  <Compound>
CC[C@@]1(O)C(=O)OCc2c1cc1n(c2=O)Cc2cc3c(CN(C)C)c(O)ccc3nc2-1

>  <Bacterial Biotransformation>
Compound NOT metabolized

$$$$
>  <Compound>
CCc1cccc2c3c([nH]c12)C(CC)(CC(=O)O)OCC3 (centres undefined)

>  <Bacterial Biotransformation>
Compound NOT metabolized

$$$$
>  <Compound>
COc1cc(C(=O)NCc2ccc(OCCN(C)C)cc2)cc(OC)c1OC [TRIMETHOBENZAMIDE]

>  <Bacterial Biotransformation>
Compound NOT metabolized

$$$$
>  <Compound>
Br.CN1CCC[C@@H]1Cc1c[nH]c2ccc(CCS(=O)(=O)c3ccccc3)cc12 [ELETRIPTAN HYDROBROMIDE]

>  <Bacterial Biotransformation>
Compound NOT metabolized

$$$$
>  <Compound>
CC(=O)Nc1ccc(OC(C)=O)cc1 [DIACETAMATE]

>  <Bacterial Biotransformation>
Compound metabolized

$$$$
>  <Compound>
C#C[C@]1(OC(C)=O)CC[C@H]2[C@@H]3CCC4=C/C(=N/O)CC[C@@H]4[C@H]3CC[C@@]21CC [NORGESTIMATE]

>  <Bacterial Biotransformation>
Compound NOT metabolized

$$$$
>  <Compound>
N#Cc1ccc2[nH]cc(CCCCN3CCN(c4ccc5oc(C(N)=O)cc5c4)CC3)c2c1

>  <Bacterial Biotransformation>
Compound metabolized

$$$$
>  <Compound>
COc1ccc(CN2CCNCC2)c(OC)c1OC.Cl.Cl [TRIMETAZIDINE DIHYDROCHLORIDE]

>  <Bacterial Biotransformation>
Compound NOT metabolized

$$$$
>  <Compound>
COc1ccc(Cc2nccc3cc(OC)c(OC)cc23)cc1OC

>  <Bacterial Biotransformation>
Compound metabolized

$$$$
>  <Compound>
CC(C)(C)NCC(O)c1cc(Cl)c(N)c(Cl)c1 (centres undefined)

>  <Bacterial Biotransformation>
Compound NOT metabolized

$$$$
>  <Compound>
Nc1nc(NC2CC2)c2ncn([C@H]3C=C[C@@H](CO)C3)c2n1.Nc1nc(NC2CC2)c2ncn([C@H]3C=C[C@@H](CO)C3)c2n1.O=S(=O)(O)O [ABACAVIR SULFATE]

>  <Bacterial Biotransformation>
Compound metabolized

$$$$
>  <Compound>
CCN(C(C)=O)c1cccc(-c2ccnc3c(C#N)cnn23)c1

>  <Bacterial Biotransformation>
Compound NOT metabolized

$$$$
>  <Compound>
CCOc1cc(CC(=O)N[C@@H](CC(C)C)c2ccccc2N2CCCCC2)ccc1C(=O)O [REPAGLINIDE]

>  <Bacterial Biotransformation>
Compound metabolized

$$$$
>  <Compound>
CC(N)C12CC3CC(CC(C3)C1)C2 (centres undefined)

>  <Bacterial Biotransformation>
Compound metabolized

$$$$
>  <Compound>
CSc1ccc2c(c1)C(N1CCN(C)CC1)Cc1ccccc1S2.O=C(O)/C=C\C(=O)O (centres undefined)

>  <Bacterial Biotransformation>
Compound metabolized

$$$$
>  <Compound>
CN1CCN2c3ccccc3Cc3ccccc3C2C1 (centres undefined)

>  <Bacterial Biotransformation>
Compound metabolized

$$$$
>  <Compound>
O=C(NC(Cc1cc(=O)[nH]c2ccccc12)C(=O)O)c1ccc(Cl)cc1 (centres undefined) [REBAMIPIDE]

>  <Bacterial Biotransformation>
Compound NOT metabolized

$$$$
>  <Compound>
CC(=O)O[C@H]1C(=O)[C@@]2(C)[C@H]([C@H](OC(=O)c3ccccc3)[C@]3(O)C[C@H](OC(=O)[C@H](O)[C@@H](NC(=O)c4ccccc4)c4ccccc4)C(C)=C1C3(C)C)[C@]1(OC(C)=O)CO[C@@H]1C[C@@H]2O

>  <Bacterial Biotransformation>
Compound metabolized

$$$$
>  <Compound>
CC(=O)OCC(=O)[C@@]1(OC(C)=O)[C@@H](C)C[C@H]2[C@@H]3C[C@H](F)C4=CC(=O)C=C[C@]4(C)[C@@]3(F)[C@@H](O)C[C@@]21C [DIFLORASONE DIACETATE]

>  <Bacterial Biotransformation>
Compound NOT metabolized

$$$$
>  <Compound>
COc1ccccc1OCCNCC(O)COc1cccc2[nH]c3ccccc3c12 (centres undefined)

>  <Bacterial Biotransformation>
Compound NOT metabolized

$$$$
>  <Compound>
CCOC(=O)[C@H](CCc1ccccc1)N[C@@H](C)C(=O)N1CCC[C@H]1C(=O)O.O=C(O)/C=C\C(=O)O [ENALAPRIL MALEATE]

>  <Bacterial Biotransformation>
Compound NOT metabolized

$$$$
>  <Compound>
CCN(CC)CCNC(=O)c1ccc(NC(C)=O)cc1 [ACECAINIDE]

>  <Bacterial Biotransformation>
Compound NOT metabolized

$$$$
>  <Compound>
CNNCc1ccc(C(=O)NC(C)C)cc1

>  <Bacterial Biotransformation>
Compound metabolized

$$$$
>  <Compound>
CN1CCCCC1CCN1c2ccccc2Sc2ccc([S+](C)[O-])cc21.O=S(=O)(O)c1ccccc1 (centres undefined) [MESORIDAZINE BESYLATE]

>  <Bacterial Biotransformation>
Compound NOT metabolized

$$$$
>  <Compound>
Br.COc1ccc2c(c1)[C@]13CCCC[C@@H]1[C@H](C2)N(C)CC3.O [DEXTROMETHORPHAN HYDROBROMIDE]

>  <Bacterial Biotransformation>
Compound NOT metabolized

$$$$
>  <Compound>
CC12CC3CC(C)(C1)CC(N)(C3)C2 [MEMANTINE]

>  <Bacterial Biotransformation>
Compound metabolized

$$$$
>  <Compound>
CCOc1ccccc1OCCN[C@H](C)Cc1ccc(OC)c(S(N)(=O)=O)c1.Cl [TAMSULOSIN HYDROCHLORIDE]

>  <Bacterial Biotransformation>
Compound NOT metabolized

$$$$
>  <Compound>
CN(CCOc1ccc(CC2SC(=O)NC2=O)cc1)c1ccccn1.O=C(O)/C=C\C(=O)O (centres undefined) [ROSIGLITAZONE MALEATE]

>  <Bacterial Biotransformation>
Compound NOT metabolized

$$$$
>  <Compound>
C[N+]12CCC(CC1)C(OC(=O)C(O)(c1ccccc1)c1ccccc1)C2.[Br-] (centres undefined) [CLIDINIUM BROMIDE]

>  <Bacterial Biotransformation>
Compound NOT metabolized

$$$$
>  <Compound>
O=C1CN2Cc3c(ccc(Cl)c3Cl)N=C2N1 [ANAGRELIDE]

>  <Bacterial Biotransformation>
Compound metabolized

$$$$
>  <Compound>
CN1[C@@H]2CC[C@H]1C[C@@H](OC(=O)[C@H](CO)c1ccccc1)C2

>  <Bacterial Biotransformation>
Compound NOT metabolized

$$$$
>  <Compound>
CCc1oc2ccccc2c1C(=O)c1cc(Br)c(O)c(Br)c1

>  <Bacterial Biotransformation>
Compound NOT metabolized

$$$$
>  <Compound>
CCCN1C[C@H](CSC)C[C@@H]2c3cccc4[nH]cc(c34)C[C@H]21.CS(=O)(=O)O [PERGOLIDE MESYLATE]

>  <Bacterial Biotransformation>
Compound NOT metabolized

$$$$
